# assayed_target: TTK (human)
# protocol_notes: radiometric filter-binding kinase assay, Kinase HotSpot
# details: compound 0.5 µM; ATP 10 µM
experimental_endpoint: residual activity

[
  {
    "structure_as_smiles": "COc1cc(Nc2c(C#N)cnc3cc(OCCCN4CCN(C)CC4)c(OC)cc23)c(Cl)cc1Cl",
    "assayed_target": "TTK (human)",
    "endpoint_result": "110%"
  },
  {
    "structure_as_smiles": "N#Cc1c[nH]c2c[nH]/c(=N\\Cc3cccnc3)cc2/c1=N\\c1ccc(F)c(Cl)c1",
    "assayed_target": "TTK (human)",
    "endpoint_result": "99.1%"
  },
  {
    "structure_as_smiles": "Cc1nc(-c2ccccc2)c(-c2ccncc2)o1",
    "assayed_target": "TTK (human)",
    "endpoint_result": "100%"
  }
]

---

Reported values of residual activity for individual entries
# assayed_target: PNCK (human)
# protocol_notes: radiometric filter-binding kinase assay, Kinase HotSpot
# details: compound 0.5 µM; ATP 10 µM

[
  {
    "structure_as_smiles": "N#Cc1c[nH]c2c[nH]/c(=N\\Cc3cccnc3)cc2/c1=N\\c1ccc(F)c(Cl)c1",
    "residual activity, %": 99.8
  },
  {
    "structure_as_smiles": "COc1cc2ncnc(Nc3ccc(Oc4ccccc4)cc3)c2cc1OC",
    "residual activity, %": 97.7
  },
  {
    "structure_as_smiles": "Cc1cccc(-c2nc(C(C)(C)C)[nH]c2-c2ccc3c(c2)OCO3)n1",
    "residual activity, %": 101
  }
]

---

Below is a list of entries, each paired with its recorded residual activity value.
# assayed_target: CSF1R (human)
# protocol_notes: radiometric filter-binding kinase assay, Kinase HotSpot
# details: compound 0.5 µM; ATP 10 µM

[
  {
    "structure_as_smiles": "O=C1c2ccccc2-c2nc3nnnn3nc21",
    "residual activity / %": 11.6
  },
  {
    "structure_as_smiles": "COc1ccc(C(=O)Nc2sc3c(c2C(N)=O)CCCC3)cc1OC",
    "residual activity / %": 90.2
  },
  {
    "structure_as_smiles": "COc1ccc2c(c1)c(C1=C(c3c[nH]c4ccccc34)C(=O)NC1=O)cn2CCCN(C)C",
    "residual activity / %": 92.8
  },
  {
    "structure_as_smiles": "O=C1C(Cl)=C(N2C(=O)CCC2=O)C(=O)c2ccccc21",
    "residual activity / %": 102
  }
]

---

Measured residual activity values are reported for all entries that follow.
# assayed_target: PDGFRB (human) (UniProt P09619)
# Sequence (P09619 whole entry, looked up): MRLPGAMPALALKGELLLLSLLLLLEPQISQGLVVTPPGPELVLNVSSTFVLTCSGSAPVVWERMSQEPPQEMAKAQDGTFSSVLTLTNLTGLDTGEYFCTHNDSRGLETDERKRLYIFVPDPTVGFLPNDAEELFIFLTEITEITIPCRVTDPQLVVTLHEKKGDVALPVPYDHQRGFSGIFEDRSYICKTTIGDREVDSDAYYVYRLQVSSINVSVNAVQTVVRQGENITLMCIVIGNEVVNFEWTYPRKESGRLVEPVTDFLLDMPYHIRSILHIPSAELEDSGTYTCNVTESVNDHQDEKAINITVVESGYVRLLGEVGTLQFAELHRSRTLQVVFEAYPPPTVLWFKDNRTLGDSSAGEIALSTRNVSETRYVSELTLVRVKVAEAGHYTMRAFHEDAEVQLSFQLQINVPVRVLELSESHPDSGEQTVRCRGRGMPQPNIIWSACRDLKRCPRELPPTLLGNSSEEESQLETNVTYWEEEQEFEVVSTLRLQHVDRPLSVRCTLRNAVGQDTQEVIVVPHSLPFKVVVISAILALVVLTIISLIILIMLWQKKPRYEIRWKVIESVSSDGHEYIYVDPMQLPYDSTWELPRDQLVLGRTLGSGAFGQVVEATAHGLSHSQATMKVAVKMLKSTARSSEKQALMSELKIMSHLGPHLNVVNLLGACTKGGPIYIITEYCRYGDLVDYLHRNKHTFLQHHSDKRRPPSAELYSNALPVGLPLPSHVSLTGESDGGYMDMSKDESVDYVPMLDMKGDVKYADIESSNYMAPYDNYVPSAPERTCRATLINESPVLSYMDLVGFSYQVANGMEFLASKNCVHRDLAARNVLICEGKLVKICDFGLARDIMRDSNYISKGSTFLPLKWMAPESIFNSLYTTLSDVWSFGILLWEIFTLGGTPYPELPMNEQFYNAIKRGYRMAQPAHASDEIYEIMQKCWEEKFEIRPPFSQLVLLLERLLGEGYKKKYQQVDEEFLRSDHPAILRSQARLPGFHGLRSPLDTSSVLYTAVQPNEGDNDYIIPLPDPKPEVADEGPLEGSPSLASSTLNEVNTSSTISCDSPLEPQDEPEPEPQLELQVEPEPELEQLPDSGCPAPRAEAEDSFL
# protocol_notes: radiometric filter-binding kinase assay, Kinase HotSpot
# details: compound 0.5 µM; ATP 10 µM

[
  {
    "structure_as_smiles": "Cc1nc(-c2ccccc2)c(-c2ccncc2)o1",
    "u": "%",
    "residual activity": 109
  },
  {
    "structure_as_smiles": "COc1cc(Nc2c(C#N)cnc3cc(OCCCN4CCN(C)CC4)c(OC)cc23)c(Cl)cc1Cl",
    "u": "%",
    "residual activity": 74.8
  },
  {
    "structure_as_smiles": "O=C1c2ccccc2-c2nc3nnnn3nc21",
    "u": "%",
    "residual activity": 11.3
  },
  {
    "structure_as_smiles": "CS(=O)(=O)CCNCc1ccc(-c2ccc3ncnc(Nc4ccc(OCc5cccc(F)c5)c(Cl)c4)c3c2)o1",
    "u": "%",
    "residual activity": 92
  },
  {
    "structure_as_smiles": "CO[C@@H]1[C@H](N(C)C(=O)c2ccccc2)C[C@H]2O[C@]1(C)n1c3ccccc3c3c4c(c5c6ccccc6n2c5c31)C(=O)NC4",
    "u": "%",
    "residual activity": 14.8
  },
  {
    "structure_as_smiles": "N#C/C(=C\\c1ccc(O)c(O)c1)C(=O)NCc1ccccc1",
    "u": "%",
    "residual activity": 100
  },
  {
    "structure_as_smiles": "CC(C)(C)c1cc(C=C(C#N)C#N)cc(Br)c1O",
    "u": "%",
    "residual activity": 104
  },
  {
    "structure_as_smiles": "Fc1ccc(-c2nc3n(c2-c2ccncc2)CCS3)cc1",
    "u": "%",
    "residual activity": 107
  },
  {
    "structure_as_smiles": "COc1cc2ncnc(Nc3ccc(OCc4ccccc4)cc3)c2cc1OC",
    "u": "%",
    "residual activity": 93
  }
]

---

# Tested on: MKNK1 (human), Q9BUB5 [T385D; 165-205 del]
# Sequence (Q9BUB5 whole entry, looked up, stated change not applied): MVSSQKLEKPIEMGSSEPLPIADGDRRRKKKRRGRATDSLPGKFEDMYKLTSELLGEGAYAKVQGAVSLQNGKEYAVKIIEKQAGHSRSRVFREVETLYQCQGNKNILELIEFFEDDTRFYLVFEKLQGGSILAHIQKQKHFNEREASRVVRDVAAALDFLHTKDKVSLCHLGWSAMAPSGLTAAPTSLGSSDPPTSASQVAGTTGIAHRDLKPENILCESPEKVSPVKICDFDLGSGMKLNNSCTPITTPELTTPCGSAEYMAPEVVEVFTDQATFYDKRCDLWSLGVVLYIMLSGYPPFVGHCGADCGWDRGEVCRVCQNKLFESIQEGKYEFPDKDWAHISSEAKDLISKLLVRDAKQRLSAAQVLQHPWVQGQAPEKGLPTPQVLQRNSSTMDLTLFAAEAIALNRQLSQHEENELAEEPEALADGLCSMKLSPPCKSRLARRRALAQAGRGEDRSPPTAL
# protocol_notes: radiometric filter-binding kinase assay, Kinase HotSpot
# details: compound 0.5 µM; ATP 10 µM
Catalogue of residual activity readings, one per entry.

[
  {
    "structure_as_smiles": "CNc1cc2c(Nc3cccc(Br)c3)ncnc2cn1",
    "residual activity (%)": 55.2
  },
  {
    "structure_as_smiles": "N#C/C(=C(/N)Sc1ccc(N)cc1)c1ccccc1C(F)(F)F",
    "residual activity (%)": 103
  },
  {
    "structure_as_smiles": "O=C1NC(=O)C(c2cn(CCCO)c3ncccc23)=C1c1cnccn1",
    "residual activity (%)": 100
  },
  {
    "structure_as_smiles": "CC(C)(C)c1nc2c3ccc(F)cc3c3c(=O)[nH]ccc3c2[nH]1",
    "residual activity (%)": 101
  },
  {
    "structure_as_smiles": "Cc1nc(-c2ccccc2)c(-c2ccncc2)o1",
    "residual activity (%)": 123
  },
  {
    "structure_as_smiles": "O=S(=O)(NCCNC/C=C/c1ccc(Br)cc1)c1cccc2cnccc12",
    "residual activity (%)": 93.4
  },
  {
    "structure_as_smiles": "CC[C@@H](CO)Nc1nc(NCc2ccccc2)c2ncn(C(C)C)c2n1",
    "residual activity (%)": 96.4
  },
  {
    "structure_as_smiles": "COc1cc2ncnc(Nc3ccc(Oc4ccccc4)cc3)c2cc1OC",
    "residual activity (%)": 98.9
  },
  {
    "structure_as_smiles": "CCCCc1c(-c2ccc(OC)cc2)[nH]c2nccnc12",
    "residual activity (%)": 97.7
  },
  {
    "structure_as_smiles": "CCN(CC)CCCCN1c2ccccc2Oc2ccc(Cl)cc21",
    "residual activity (%)": 95.6
  },
  {
    "structure_as_smiles": "Cc1ccc(Nc2nccc(N(C)c3ccc4c(C)n(C)nc4c3)n2)cc1S(N)(=O)=O",
    "residual activity (%)": 102
  },
  {
    "structure_as_smiles": "O=c1[nH]c2ccccc2n1C1CCN(Cc2ccc(-c3nc4cc5[nH]cnc5cc4nc3-c3ccccc3)cc2)CC1",
    "residual activity (%)": 104
  },
  {
    "structure_as_smiles": "c1ccc(-c2n[nH]cc2-c2ccnc3ccccc23)nc1",
    "residual activity (%)": 75.9
  },
  {
    "structure_as_smiles": "COc1cc2ncnc(Nc3ccc(F)c(Cl)c3)c2cc1OCCCN1CCOCC1",
    "residual activity (%)": 41.9
  },
  {
    "structure_as_smiles": "O=c1cc(N2CCOCC2)oc2c1ccc1ccccc12",
    "residual activity (%)": 95
  },
  {
    "structure_as_smiles": "CCc1nc(-c2ccc(OC)cc2)[nH]c1-c1ccncc1",
    "residual activity (%)": 115
  }
]

---

# assayed_target: DAPK3 (human)
# protocol_notes: radiometric filter-binding kinase assay, Kinase HotSpot
# details: compound 0.5 µM; ATP 10 µM
experimental_endpoint: residual activity (%)

[
  {
    "structure_as_smiles": "O=C(c1cc2cc(O)ccc2[nH]1)c1cc2cc(O)ccc2[nH]1",
    "experimental_endpoint": "residual activity",
    "endpoint_result": 104
  },
  {
    "structure_as_smiles": "COc1cc2ncnc(Nc3ccc(OCc4ccccc4)cc3)c2cc1OC",
    "experimental_endpoint": "residual activity",
    "endpoint_result": 99.2
  },
  {
    "structure_as_smiles": "O=C1C(Cl)=C(N2C(=O)CCC2=O)C(=O)c2ccccc21",
    "experimental_endpoint": "residual activity",
    "endpoint_result": 114
  },
  {
    "structure_as_smiles": "c1ccc2c(-c3ccncc3)c[nH]c2c1",
    "experimental_endpoint": "residual activity",
    "endpoint_result": 101
  },
  {
    "structure_as_smiles": "CN(C)S(=O)(=O)c1ccc2c(c1)/C(=C/c1cc3c([nH]1)CCCC3)C(=O)N2",
    "experimental_endpoint": "residual activity",
    "endpoint_result": 94.4
  },
  {
    "structure_as_smiles": "Cc1nc(-c2ccccc2)c(-c2ccncc2)o1",
    "experimental_endpoint": "residual activity",
    "endpoint_result": 101
  },
  {
    "structure_as_smiles": "CN(C)c1ccc(/C=C2\\C(=O)Nc3ccccc32)cc1",
    "experimental_endpoint": "residual activity",
    "endpoint_result": 101
  },
  {
    "structure_as_smiles": "O=C1NC(=O)c2c1c1c3ccccc3[nH]c1n1cncc21",
    "experimental_endpoint": "residual activity",
    "endpoint_result": 29.6
  },
  {
    "structure_as_smiles": "CCCCc1c(-c2ccc(OC)cc2)[nH]c2nccnc12",
    "experimental_endpoint": "residual activity",
    "endpoint_result": 102
  },
  {
    "structure_as_smiles": "Cn1c2ccccc2c2c3c(c4c5ccccc5n(CCC#N)c4c21)CNC3=O",
    "experimental_endpoint": "residual activity",
    "endpoint_result": 93.6
  },
  {
    "structure_as_smiles": "NC(=O)c1cccc(-c2cc(Nc3ccc(OC(F)(F)F)cc3)ncn2)c1",
    "experimental_endpoint": "residual activity",
    "endpoint_result": 99.8
  }
]
